The following molecules are shown together with reported IC50 values.
Tested on: Mycobacterium tuberculosis H37Rv growth in 7H9 media
Assay Remarks: M. tuberculosis growth inhibition, dose response, H37Rv, 7H9 media, purified and synthesized compounds, set 4 (AID 504857)
Test Conditions: measured here: M. tuberculosis growth IC50

In [3]: df
Out[3]:
                              smiles_data  recorded_result
0  O=C(CSc1nc2c(c(=O)[nH]1)CCC2)NC1CCCCC1          < 10 nM
1    CC(C)CCNC(=O)CSc1nc2ccccc2c(=O)[nH]1          < 10 nM

Continue with the molecule presented below.
Record O=C(CSc1nc2c(c(=O)[nH]1)CCCC2)NC1CCCCC1 . Reported IC50: < 10 nM
